Test system: MDA-MB-468 breast
Experiment: NCI-60 one-dose screen, 48 h
Details: 10 µM unless noted
About 83,000 compounds went through this panel and 20% of them were active in at least one assay; those are over-represented in the sample as a whole. Activity calls are given as the source filed them. Rule for the calls: active = growth percent below 10; inactive = the rest.
Pick one: active, inactive

COMPOUND: c1cncc(-c2nc3ccccc3[nH]2)c1
CAT: inactive
--
COMPOUND: COc1ccc(C(=O)n2cc(C=O)c3ccccc32)cc1
CAT: inactive
--
COMPOUND: CC(C)(C)c1cc(-c2nc3ccc(N4CCN(S(C)(=O)=O)CC4)cc3[nH]2)cc(C(C)(C)C)c1O
CAT: inactive
--
COMPOUND: Cc1cc2nc3c4ccccc4n(CCN(C)C)c3nc2cc1C
CAT: active
--
COMPOUND: O=[N+]([O-])c1ccc(-c2nc(-c3ccccc3)c(-c3ccccc3)n2-c2ccccc2)cc1
CAT: active
--
COMPOUND: O=C(Nc1nc2c(C(F)(F)F)cccc2s1)c1cc(Cl)ccc1O
CAT: active
--
COMPOUND: O=C1NC(=O)C(c2cnc3ccccn23)=C1c1cn2c3c(cc(F)cc13)CN(C(=O)N1CCCCC1)CC2
CAT: inactive
--
COMPOUND: CNC1=C([N+](=O)[O-])C(c2ccccc2O)C(C#N)=C(c2cccs2)O1 (configuration not stated)
CAT: inactive
--
COMPOUND: O=C1NCC(=O)N(Cc2ccco2)[C@H]1Cc1ccccc1
CAT: inactive
--
COMPOUND: N#Cc1cccc(F)c1
CAT: inactive

So what was the verdict on Cc1cc(=O)c2c(C)ccc(C)c2[nH]1 in this test?
inactive

Repeat for the following compound: Cc1ccc(-c2nc3nc(-c4ccccc4)nc(N4CCCNCC4)c3o2)cc1
active

Repeat for the following compound: O=C(N/N=C/[C@H](O)[C@H](O)[C@H](O)CO)c1ccc(NC(=O)c2cccnc2)cc1
inactive

Repeat for the following compound: CC(C)Sc1nc(NNC(N)=S)c(C#N)c(-c2ccc(F)cc2)n1
inactive

Repeat for the following compound: COc1cc(Cl)cc(-c2nn(-c3cccc(NC(=O)Nc4cc(C(F)(F)F)cc(C(F)(F)F)c4)c3)cc2-c2ccncc2)c1
active

Repeat for the following compound: Cc1nc2sc(C(=O)Nc3ccccc3)c(N)c2cc1C(=O)c1ccccc1
active

Repeat for the following compound: c1ccc(-c2nn(-c3ccccc3)[n+](-c3cccc4ccccc34)n2)cc1
active

---

System: MDA-MB-468 breast
Assay: NCI-60 one-dose screen, 48 h
Settings: 10 µM unless noted
Compounds without any hit were thinned out: in the full panel of roughly 83,000, 20% have a hit. Activity calls are given as the source filed them. The calls were made as follows: active = growth percent below 10; inactive = the rest.
Pick one: true (1) (active), false (0) (inactive)

// below: answered compounds
SMILES CODE: COc1cc(-c2nc(/C=C3/C(=O)Nc4ccccc43)c3ccccn23)cc(OC)c1OC
CAT: false (0)
--
SMILES CODE: Cn1ccc(=O)nc1
CAT: false (0)
--
SMILES CODE: O=C(Nc1nc2ccc(C(=O)N3CCN(c4ccc(Cl)c(Cl)c4)CC3)cc2s1)c1ccc(NCCc2ccccc2)c([N+](=O)[O-])c1
CAT: false (0)
--
SMILES CODE: CC(C)=CC/C=C(/C)[C@H]1CC[C@]2(C)[C@@H]1CC[C@@H]1[C@@]3(C)CCC(=O)NC(C)(C)[C@@H]3CC[C@]12C
CAT: true (1)

For the next question, use this compound.
So what was the verdict on O=C(Cc1ccccc1Nc1c(Cl)cccc1Cl)NN1C(=O)/C(=C/c2ccc(Br)cc2)SC1=S in this test?
false (0)
